src = paper PMC5779224

Molecular target: T1, AnkB 28–847 (MBD + partial AI-c) (human, UniProt Q01484-2 28-847)
T1 chain: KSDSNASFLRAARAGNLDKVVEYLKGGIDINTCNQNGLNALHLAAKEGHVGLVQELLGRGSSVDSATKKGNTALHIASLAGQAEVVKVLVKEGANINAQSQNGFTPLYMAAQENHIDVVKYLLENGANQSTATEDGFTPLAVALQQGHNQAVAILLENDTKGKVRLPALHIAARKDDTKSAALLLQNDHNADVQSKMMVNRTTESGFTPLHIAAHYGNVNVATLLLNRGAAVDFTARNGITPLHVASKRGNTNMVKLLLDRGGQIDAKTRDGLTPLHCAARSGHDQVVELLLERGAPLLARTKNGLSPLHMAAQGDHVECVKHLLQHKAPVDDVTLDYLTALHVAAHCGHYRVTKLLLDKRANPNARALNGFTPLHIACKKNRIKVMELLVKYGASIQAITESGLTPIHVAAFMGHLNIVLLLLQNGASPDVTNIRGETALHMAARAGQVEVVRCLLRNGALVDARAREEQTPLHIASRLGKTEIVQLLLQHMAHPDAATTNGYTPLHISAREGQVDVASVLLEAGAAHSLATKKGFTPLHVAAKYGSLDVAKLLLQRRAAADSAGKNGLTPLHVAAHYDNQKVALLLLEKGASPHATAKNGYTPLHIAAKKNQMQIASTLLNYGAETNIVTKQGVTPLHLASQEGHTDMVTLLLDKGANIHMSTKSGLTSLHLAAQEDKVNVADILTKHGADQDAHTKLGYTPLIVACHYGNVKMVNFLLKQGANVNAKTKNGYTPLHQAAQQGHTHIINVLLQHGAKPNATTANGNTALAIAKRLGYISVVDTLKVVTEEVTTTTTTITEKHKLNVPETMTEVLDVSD
Assay: ITC
Entries annotated with measured pKd
FYI, pKd means -log10 of a concentration in mol per litre.

Example results:
SLPSSQFLDGMNYLRYSLEGGRS [AnkB 874-896]	4.89
EDLKELGDDSLPSSQFLDGMNALRYSLEGGRS (domain or fragment) [AnkB_AI-b Tyr886Ala]	4.80
AnkB 828-896 (protein) TEKHKLNVPETMTEVLDVSDEEGDDTMTGDGGEYLRPEDLKELGDDSLPSSQFLDGMNYLRYSLEGGRS	5.57

With those in mind, consider the next binder.
Value of measured pKd for the entry EDLKELGDDSLPSSQFLDGMNYLRYSLEGGRS (domain or fragment) [AnkB_AI-b (aa 865–896)] : 5.43
